Values were extracted from paper PMC12723477.

Assay system: CnAtg4T (truncated Cryptococcus neoformans ATG4) (Cryptococcus neoformans, UniProt J9VN57)
Construct: CnAtg4T, 6xHis, truncated version excluding the disordered N-terminus, retaining the catalytic triad Cys563/Asp782/His784
Sequence (J9VN57 entry or part of it): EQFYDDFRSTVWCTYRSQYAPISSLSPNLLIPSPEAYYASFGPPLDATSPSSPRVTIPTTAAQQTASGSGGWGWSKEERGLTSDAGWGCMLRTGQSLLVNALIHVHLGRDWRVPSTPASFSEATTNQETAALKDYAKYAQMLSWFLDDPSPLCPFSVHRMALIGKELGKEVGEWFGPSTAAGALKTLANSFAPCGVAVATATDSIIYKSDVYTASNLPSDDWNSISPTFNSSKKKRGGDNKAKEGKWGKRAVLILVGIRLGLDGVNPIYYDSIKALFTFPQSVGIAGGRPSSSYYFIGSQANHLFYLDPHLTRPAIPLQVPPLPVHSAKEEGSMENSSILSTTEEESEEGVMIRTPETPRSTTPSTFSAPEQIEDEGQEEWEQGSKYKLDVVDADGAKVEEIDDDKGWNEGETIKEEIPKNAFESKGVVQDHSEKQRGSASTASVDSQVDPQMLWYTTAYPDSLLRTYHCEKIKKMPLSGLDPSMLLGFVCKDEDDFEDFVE
Assay explanation: in vitro cleavage of CnAtg8 sensor by purified CnAtg4T (immunoblot) and BRET
# pIC50 per record follows
Entry type: numeric. Quantity: pIC50, the -log10 of concentration in molar units.

Compound	pIC50
O=C1c2ccccc2[Se](=O)N1c1ccccc1 (centres unmarked) [EO, ebselen oxide]	5.32

Task: # query: pIC50 of entry Cc1ccc(-n2sc3ccccc3c2=O)cc1
Output: 5.07
